Measured screen value accompanies every entry in the list below.
B1: AMOTL2 peptide 64-79 (Angiomotin-like protein 2), 16-mer library wild type / TNKS ANK (TNKS 12 ANK repeats, residues 174-649) (parent)
chain 1: QVLQQATRQEPQGQEH
chain 2: TGVPAVSGALRELLEACRNGDVSRVKRLVDAANVNAKDMAGRKSSPLHFAAGFGRKDVVEHLLQMGANVHARDDGGLIPLHNACSFGHAEVVSLLLCQGADPNARDNWNYTPLHEAAIKGKIDVCIVLLQHGADPNIRNTDGKSALDLADPSAKAVLTGEYKKDELLEAARSGNEEKLMALLTPLNVNCHASDGRKSTPLHLAAGYNRVRIVQLLLQHGADVHAKDKGGLVPLHNACSYGHYEVTELLLKHGACVNAMDLWQFTPLHEAASKNRVEVCSLLLSHGADPTLVNCHGKSAVDMAPTPELRERLTYEFKGHSLLQAAREADLAKVKKTLALEIINFKQPQSHETALHCAVASLHPKRKQVTELLLRKGANVNEKNKDFMTPLHVAAERAHNDVMEVLHKHGAKMNALDTLGQTALHRAALAGHLQTCRLLLSYGSDPSIISLQGFTAAQMGNEAVQQILSESTPIRTSD

variants of: B1; test: proteomic peptide phage display deep mutational scan (ProP-PD DMS): M13 P8 16-mer library selected against immobilised GST-tagged bait for four days (rounds), NGS of the eluted pools per day and pseudo-replica; settings: with TNKS ANK (TNKS 12 ANK repeats, residues 174-649); bait immobilised on MaxiSorp plates (10 µg), library pre-cleared on GST, 2 h binding at 4 °C, five washes; one round per day, days 1-4; value from days 2 and 3; keep out of graded; scale: average fractional NGS count over selection days 2 and 3
MEASURE_NAME: screen value

    variant_label  observed_value
 0   chain 1 E10R        7.98e-05
 1    chain 1 Q9I        5.19e-05
 2    chain 1 R8P        8.36e-05
 3    chain 1 Q9G        7.98e-05
 4    chain 1 Q5G        2.86e-05
 5    chain 1 Q5N        8.23e-05
 6   chain 1 G13W               0
 7   chain 1 H16K         8.3e-05
 8   chain 1 E10W         7.2e-05
 9   chain 1 G13Q               0
10   chain 1 H16F        7.99e-05
11    chain 1 Q5D        0.000115
12    chain 1 A6P        4.91e-05
13    chain 1 L3W        8.89e-05
14   chain 1 P11D               0
15    chain 1 T7K        7.17e-05
16   chain 1 P11R               0
17   chain 1 E15K               0
18   chain 1 E10D        9.35e-05
19    chain 1 T7R               0
20   chain 1 G13I               0
21   chain 1 P11G        0.000112
22    chain 1 Q5W        6.13e-05
23    chain 1 R8I               0
24   chain 1 Q12K        5.93e-05
25   chain 1 Q14F         3.1e-05
